Target of assay: T1, human TSLPR on Ba/F3-hTSLPR-hIL7Ra cells (human, UniProt Q9HC73 23-371)
T1 sequence (looked up): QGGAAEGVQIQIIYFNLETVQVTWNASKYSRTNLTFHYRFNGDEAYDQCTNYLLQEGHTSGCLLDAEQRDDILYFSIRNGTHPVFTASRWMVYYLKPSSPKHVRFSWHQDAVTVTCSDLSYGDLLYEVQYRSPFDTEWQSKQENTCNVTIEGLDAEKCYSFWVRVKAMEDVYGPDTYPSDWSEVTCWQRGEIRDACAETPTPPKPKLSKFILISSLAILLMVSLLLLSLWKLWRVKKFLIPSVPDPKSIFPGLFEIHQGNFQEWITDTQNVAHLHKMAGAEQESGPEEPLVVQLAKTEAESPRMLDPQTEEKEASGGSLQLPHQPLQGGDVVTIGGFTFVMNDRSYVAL
Method notes: cell-based or functional assay
Item-by-item account of IC50 Assay III, Ba/F3-huTSLPR proliferation
Supply the numeric figure in µg/mL, leaving out any unit text.

Examples from the recorded data:
Binder	Value observed
mouse antibody 49A5 (antibody, mouse IgG1, V domains shown, Mouse IgG1/kappa from hybridoma; also called m49A5; LB55.49A5.2F9) VH: QVQLKQSGPGLVQPSQSLSITCTVSGFSLTTYGVHWVRQSPGKGLEWLGVIWRGGNTAYNPAFMSRLSITKDNSKSQVFFKMNSLQADDTAIYHCAKKSYYGYHAMGYWGQGTSVTVSS VL: DIQMTQTTSSLSASLGDRVTINCRASQDISNYLNWYQQNPDGTVKLLIYYTSRLHSGVPSRFSGSGSGTDYSLTISNLEQEDIATYFCQQANTLPWTFGGGTKLEIKR	0.131
mouse antibody 4G8 (antibody, mouse IgG1, V domains shown, Mouse IgG1/kappa from hybridoma; also called m4G8; LB55.4G8.2A6) VH: QVQLKQSGPGLVQPSQSLSITCTVSGFSLTIYGLHWVRQSPGKGLEWLGVIWRGGSTDYNAAFMSRLRITKDNSKSQVFFKMDSLQADDTAIYYCAKPYYDYDGNWYFDVWGAGTTVTVSS VL: DIVMTQSQKFMSTSVGDRVSVTCKASQNVGTNVAWYQKKSGQSPKPLIYSASSHCSEVPDRFTGSGSGTDFTLTINNVQSEDLAEYFCQQYNRYPLTFGTGTKLEVRR	0.291
mouse antibody 61C11 (antibody, mouse IgG2a, V domains shown, Mouse IgG2a/kappa from hybridoma; also called m61C11; LB55.61C11.2B1) VH: QAYLQQSGAELVRSGASVKMSCKASGYTFTSYNLHWIKLTPGQGLEWIGYIYPGLNGTLYNQKFRGKATLTADTSSSTAYMQISSLTSEDSAVYFCARSDYGKAWFAYWGRGTLVTVSA VL: DILLTQSPAILSVSPGERVSFSCRASQSIATKIHWYQQRTDHSPRLLIQLGSESISGIPSRFSGSGSGTDFTFTINSVESEDIAVYYCQQSNRYPYTFGGGTKLEVKR	0.172

Reported IC50 Assay III, Ba/F3-huTSLPR proliferation for mouse antibody 54C11 (antibody, mouse IgG2a, V domains shown, Mouse IgG2a/kappa from hybridoma; also called m54C11; LB55.54C11.3G11) VH: QVQLQQSGPEVVRPGVSVKISCKGSGFTFTDYAIHWVRQSHAKSLEWIGIIRPSNGNTNCDQKFKDKATMTVDKSSSTAYLDLARLTSEDSAIYYCSRSRVWGGSLAYWGQGTLVTVSA VL: DIVMTQSQKFMSTSVGDRVSVTCKASQNVGTNIAWYQQKPGQSPEALIYSASYRYSGVPDRFTGSGSGTDFTLTITNVQSEDLAEYFCQQYKSYPWTFGGGTKLEIKR : what is it? 0.0227

Reported IC50 Assay III, Ba/F3-huTSLPR proliferation for rat anti-human TSLPR antibody 18B3 (antibody, V domains shown, Rat monoclonal antibody; also called r18B3; LB1.18B3) VH: EVQLVESGGGLVQPGRSLRLSCVASGFTFNNYWMTWVRQAPGKGLEWVASITDTSGRTYYPDSVKGRFTISRDHAKSTLYLQMNSLRPEDTATYYCTKTLGGIPRDWGQGVMVTVSS VL: NIQLTQSPSLLSASVGDRVTLSCKGSQNINNYLAWYQQKLGEAPKLLIFKTNILQTGIPLRFSGSGSGTDYTLTISSLHCEDLATYYCYQFNNGFTFGPGTKLELKR : what is it? 0.335

Reported IC50 Assay III, Ba/F3-huTSLPR proliferation for mouse anti-human TSLPR antibody 70E8 (antibody, mouse IgG1, V domains shown, Mouse IgG1/kappa from hybridoma; also called m70E8; LB55.70E8.1A8) VH: DVQLQESGPDLVKPSQSLSLTCTVTNYSITSGYSWPWIRQFPGNKLEWLGYIHSSGRTNYNPSLKSRISITRDTSKNQFFLQLNSVTPEDTATYYCARSQLGLVFFAYWGQGTLVTVSA VL: DIVMTQSQKFMSTSVGDRVSVTCKASQSVGANVAWYQQIPGHSPKVLIYSASYRFSGVPDRFTGSGSGTDFTLTISNVQSEDLAEYFCQQYNSYPYTFGGGTKLEIRR : what is it? 0.0407
